- System: P. falciparum 3D7
- test details: antiplasmodial activity, SYBR-Green method, P. falciparum 3D7 isolate
- Format: cell-based
- protocol conditions: Plasmodium falciparum, in vitro, FIG. 4, read-out: IC50 anti-plasmodial activity
endpoint: IC50 (µM)
Return type: number; implicit unit µM.

// IC50 lookup, key: O=c1cc(I)n([C@@H]2O[C@H](CO)[C@@H](O)[C@H]2O)c(=O)[nH]1 [Ii, 6-Iodo-uridine]
6.2
